Hi! I'm sharing some pIC50 results obtained with His-tagged Parp-1 (Homo sapiens, UniProt P09874).
Sequence (P09874 whole entry): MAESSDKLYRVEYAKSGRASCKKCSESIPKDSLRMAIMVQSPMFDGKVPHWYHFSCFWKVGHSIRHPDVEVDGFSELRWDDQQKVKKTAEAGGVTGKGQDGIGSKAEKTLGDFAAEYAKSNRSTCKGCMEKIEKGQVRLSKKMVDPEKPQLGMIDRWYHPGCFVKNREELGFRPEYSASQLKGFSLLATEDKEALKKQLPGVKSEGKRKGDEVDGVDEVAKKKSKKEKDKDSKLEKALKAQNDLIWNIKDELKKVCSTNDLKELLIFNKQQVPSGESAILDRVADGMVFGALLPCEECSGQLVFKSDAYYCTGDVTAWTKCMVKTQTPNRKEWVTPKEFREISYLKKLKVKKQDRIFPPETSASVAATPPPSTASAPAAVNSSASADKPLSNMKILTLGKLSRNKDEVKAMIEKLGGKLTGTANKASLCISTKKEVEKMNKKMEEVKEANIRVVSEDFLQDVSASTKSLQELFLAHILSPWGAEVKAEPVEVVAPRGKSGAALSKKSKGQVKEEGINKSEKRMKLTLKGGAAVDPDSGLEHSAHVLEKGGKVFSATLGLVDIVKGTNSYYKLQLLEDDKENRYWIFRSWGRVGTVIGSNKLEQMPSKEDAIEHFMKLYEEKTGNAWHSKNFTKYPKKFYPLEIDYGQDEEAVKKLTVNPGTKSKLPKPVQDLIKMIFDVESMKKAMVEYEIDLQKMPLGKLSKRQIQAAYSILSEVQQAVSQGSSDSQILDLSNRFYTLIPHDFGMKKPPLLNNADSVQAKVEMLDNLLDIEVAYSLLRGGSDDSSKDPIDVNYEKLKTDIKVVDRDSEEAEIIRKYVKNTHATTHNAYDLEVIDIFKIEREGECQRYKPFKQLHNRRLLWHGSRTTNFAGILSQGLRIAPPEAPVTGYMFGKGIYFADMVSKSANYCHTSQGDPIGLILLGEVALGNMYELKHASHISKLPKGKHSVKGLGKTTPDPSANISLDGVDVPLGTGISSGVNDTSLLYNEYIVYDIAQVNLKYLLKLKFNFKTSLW
pIC50: −log10 of the molar value.

Request the reported pIC50 associated with O=c1[nH]c(-c2ccc(F)cc2)cn2cccc12
5.52 to 6.52

Reported pIC50, molecule COc1ccc(-c2cn3cccc3c(=O)[nH]2)cc1 : ____
5.52 to 6.52

Could you tell me which pIC50 is on file for O=c1[nH]c(-c2ccc(C(F)(F)F)cc2)cn2cccc12 ?
5.52 to 6.52
